# EXPERIMENT_DESCRIPTION: Tmax in Sprague-Dawley rat at 10 mg/kg, po administered daily for 7 days measured on day 1
# Assay type: ADME, organism-based
# Design: dose 10 mg/kg, route oral
# RECORDED_CONDITIONS: in vivo

{"columns": ["COMPOUND_STRUCTURE", "Tmax"],
 "data": [
  ["CCCCCCCCCCCCCCCCOCCCOP(=O)(O)CO[C@H](C)Cn1cnc2c(N)ncnc21", "30 min"]
]}

* * *

# EXPERIMENT_DESCRIPTION: AUC (0 to 24 hrs) in Sprague-Dawley rat at 100 mg/kg, po administered daily for 7 days measured on day 1
# Type: ADME, organism-based
# Design: time < 24 hr, dose 100 mg/kg, route oral
# RECORDED_CONDITIONS: plasma

{"columns": ["COMPOUND", "UNIT_SPEC", "AUC(0-t) at 24 h"],
 "data": [
  ["CCCCCCCCCCCCCCCCOCCCOP(=O)(O)CO[C@H](C)Cn1cnc2c(N)ncnc21 [TENOFOVIR EXALIDEX]", "ng·h/mL", 5410]
]}
